Each record here notes measured soluble fraction (log2).
# METHOD_NOTES: soluble fraction after stress (log2 fold change); higher = more stays soluble; pooled small domains, quantitative proteomics
# CONDITION_NOTES: stress: 50 degC
Could you respond with only the numeric value?

These solved cases illustrate the format of a correct answer.
HMVQQTEEDVIRDMYVEGKIFTIGEEVTDTYTGVTGKIIRRGTNYVTFMSEDGETYKKWLYEIELA = -1
HMKFDVNAAIRAVLNVTVDKGATLERIMKETNLTSDQLVLPIALLMKTERLHFKRSGTHEVYVSVGKAPDK = -3.02

Lab note: next sequence to report on.
[ask] I am curious: what soluble fraction (log2) value has been reported for HMRTAELEVWDDDELNDVVKLIQNNHNINTLKLRFQENVSFSGLSLIAAVLTKQSIILEIEY ?
[reply] 0.0488
